Origin of the recorded values: patent US20250340623A1

// reported pKd for each item listed
Target: monomeric alpha-synuclein, P37840
Assay: SPR, captured mAb
Conditions: remark: other sources report otherwise
pKd: −log10 of the molar value.
readoutName: pKd

# binder, val
rows = [
    ("ACI-7067-1108B11-Ab2 (antibody, V domains shown) VH: EVQLVESGGGLVQPKGSLKLSCAASGFTFNTYAMHWVRQAPGKGLEWVARIRSKGSNYATNYADSVKDRFTISRDDSQSMLYLQMNNLKTEDTAMYYCVRGHGSSYFSYWGQGTLVTVSA VL: QIVLTQSPAIMSASPGERITMTCSANSSVTYMHWYQQKSGTSPKRWIYDTSNLASGVPARFSGSGSGTSYSLTISSMEAEDAATYYCQQWKSHPPTFGAGTKLELK", 8.09),
    ("ACI-7088-4305H7-Ab1 (antibody, V domains shown) VH: EVQLQQSGAELVRPGASVKLSCTASGFNIKDDYMHWVKQRPEQGLEWIGWIDPENGDTEYASKFQGKATMIADTSSNTAYLQLSSLTSEDTAVYYCKTWGTTQALFPYWGQGTLVTVSS VL: DIVMTQSQKFMSTSVGDRVSITCKASQNVGTAVGWYQQKAGQSPKLLIHSASNRYTGVPDRFTGSGSGTDFTLTINNMQSEDLADYFCQQYRSYPLTFGAGTKLELK", 8.47),
]
